Where these numbers come from: patent US20040162422A1

# assay_system: human adenosine A3 receptors (Homo sapiens)
# Construct: expressed in transfected cells; host or cells: Chinese hamster ovary (CHO) cells with CRE/SPAP/HYG reporter
# Sequence (P0DMS8 whole entry): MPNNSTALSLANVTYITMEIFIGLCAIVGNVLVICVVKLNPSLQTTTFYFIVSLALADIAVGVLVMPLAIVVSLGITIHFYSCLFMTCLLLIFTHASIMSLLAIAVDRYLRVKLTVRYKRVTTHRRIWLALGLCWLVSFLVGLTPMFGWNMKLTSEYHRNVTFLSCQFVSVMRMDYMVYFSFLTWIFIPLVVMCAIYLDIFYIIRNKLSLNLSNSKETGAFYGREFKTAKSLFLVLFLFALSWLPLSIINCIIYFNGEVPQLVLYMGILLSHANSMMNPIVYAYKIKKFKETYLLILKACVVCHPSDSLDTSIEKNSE
# procedure_text: Reporter gene experiments in CHO cells (CRE/SPAP, inhibition of forskolin-stimulated SPAP production)
# Type: cell-based
# applied_conditions: ECR = equipotent concentration ratio relative to NECA = 1; agonist potency, CHO CRE/SPAP reporter gene assay
Assignment: determine reported Adenosine A3 receptor ECR* for the given compounds.

// C#C[C@H]1O[C@@H](n2cnc3c(Nc4ccc(Cl)cc4C)ncnc32)[C@H](O)[C@@H]1O [Example 39] : Adenosine A3 receptor ECR* value = >168

The reported Adenosine A3 receptor ECR* of the compound C#C[C@H]1O[C@@H](n2cnc3c(Nc4ccc(F)cc4F)ncnc32)[C@H](O)[C@@H]1O [Example 32] was >1070

// sample C#C[C@H]1O[C@@H](n2cnc3c(N[C@H]4C[C@H]5CCC[C@H]54)ncnc32)[C@H](O)[C@@H]1O (relative stereo) [Example 17] , its Adenosine A3 receptor ECR* was >416

Reported Adenosine A3 receptor ECR* for C#C[C@H]1O[C@@H](n2cnc3c(N[C@H]4CCO[C@H]4C)ncnc32)[C@H](O)[C@@H]1O [Example 14] was >502

====

# assay_system: human adenosine A1 receptors (Homo sapiens)
# Construct: expressed in transfected cells
# Sequence (P30542 whole entry): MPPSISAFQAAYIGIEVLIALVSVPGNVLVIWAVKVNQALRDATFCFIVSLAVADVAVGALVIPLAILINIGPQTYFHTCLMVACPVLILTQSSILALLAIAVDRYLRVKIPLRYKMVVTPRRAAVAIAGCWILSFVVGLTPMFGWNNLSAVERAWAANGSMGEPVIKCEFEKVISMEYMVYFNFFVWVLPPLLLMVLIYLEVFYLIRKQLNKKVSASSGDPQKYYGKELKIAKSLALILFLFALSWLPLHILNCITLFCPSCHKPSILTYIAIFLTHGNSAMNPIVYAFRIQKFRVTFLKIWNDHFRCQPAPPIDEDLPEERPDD
# procedure_text: Reporter gene experiments in yeast (agonist activity, β-galactosidase/FDG readout)
# Type: cell-based
# Parameters: key: equipotent concentration ratio relative to NECA = 1
# applied_conditions: ECR = equipotent concentration ratio relative to NECA = 1; agonist potency, yeast reporter gene assay
Provide the recorded Adenosine A1 receptor ECR* for the entries that follow.
Output: the number by itself.

For this compound ( C#C[C@H]1O[C@@H](n2cnc3c(N[C@@H]4CCO[C@@H]4C)ncnc32)[C@H](O)[C@@H]1O [Example 13] ), measured Adenosine A1 receptor ECR* is 18.86

Form field Adenosine A1 receptor ECR*, entry C#C[C@H]1O[C@@H](n2cnc3c(N[C@H]4[C@H]5CC[C@H](C5)[C@@H]4C)ncnc32)[C@H](O)[C@@H]1O [Example 8] : 7.94

Lookup result for C#C[C@H]1O[C@@H](n2cnc3c(N[C@@H]4CCC[C@]4(OC)c4ccccc4)ncnc32)[C@H](O)[C@@H]1O (relative stereo) [Example 9] ; measured Adenosine A1 receptor ECR*: 23.81
